- measurement.target: TF (Innovin) (UniProt P13726 33-295, limits assumed)
- assay.notes: cell-based or functional assay
Please note: IC50, inhibition of FXa generation exactly at 0.09 nM is condition not met. Only values below 0.09 nM get condition met.

binder="anti-TF HuMab 003 (antibody, V domains shown, Human monoclonal antibody from HuMab mice; also called HuMab-TF-003) VH: QVQLVQSGAEVKKPGSSVKVSCKAPRGTFSYYTISWVRQAPGQGLEWMGRIIPILGVANYAQKFQGRVTITADKSTSTAYMELSSLRSEDTAVYYCAREGDRRYFDYWGQGTLVTVSS VL: AIQLTQSPSSLSASVGDRVTITCRASQDISSALAWYQQKPGKAPKLLIYDASILESGVPSRFSGSGSGTDFTLTISSLQPEDFATYYCQQFNSYPLTFGGGTKVEIK" label="condition met"
binder="anti-TF HuMab 025 (antibody, V domains shown, Human monoclonal antibody from HuMab mice) VH: QVQLVESGGGVVQPGRSLRLSCAASGFTFSRYAMHWVRQAPGKGLEWVAVISNDGYNDYYADSVKGRFTVSRDNSKNTLYLQMNSLRAEDTAVYYCARDGQLGRGYFDYWGQGTLVTVSS VL: EIVLTQSPATLSLSPGERATLSCRASQSVSSYLAWYQQKPGQAPRLLIYDASNRATGIPARFSGSGSGTDFTLTISSLEPEDFAVYYCQQRSNWPLTFGGGTKVEIK" label="condition not met"
binder="anti-TF HuMab 013 (antibody, V domains shown, Human monoclonal antibody from HuMab mice; also called HuMab-TF-13) VH: EVQLVQSGAEVKKPGESLKISCKGSGYSFTSYWIGWVRQMPGKGLEWMGIIYPGDSDTRYSPSFQGQVTISADKSISTAYLQWSSLKASDTAMYYCARIHRGAGYSSSWPGAFDIWGQGTMVTVSS VL: DIQMTQSPSSLSASVGDRVTITCRASQGISRWLAWYQQKPEKAPKSLIYAASSLQSGVPSRFSGSGSGTDFTLTISSLQPEDFATYYCQQYDSDPITFGQGTRLEIK" label="condition met"
binder="anti-TF HuMab 098 (antibody, V domains shown, Human monoclonal antibody from HuMab mice; also called HuMab-TF-098; HuMab-TF-98) VH: QVQLVQSGAEVRKPGSSVKVSCKASGGSFNNYPIFWVRQAPGQGFEWMGRIIPILGITAYAQKFQGRVTITADKSTSTAYMELNSLRSEDTAVYYCAGGDDLDAFDIWGQGTMVSVSS VL: DIQMTQSPSSLSASVGDRVTITCRASQGISSWLAWYQQKPEKAPKSLIYAASSLQSGVPSRFSGSGSGTDFTLTISSLQPEDFATYYCQQYNSYPYTFGQGTKLEIK" label="condition not met"
binder="anti-TF HuMab 111 (antibody, V domains shown, Human monoclonal antibody from HuMab mice) VH: QVQLVESGGGVVQPGRSLRLSCAGSGFTFNRYAMYWVRQAPGKGLDWVAVISNDGINKYYADSVKGRFTISRDNSKNTLYLQMNSLRAEDTAVYYCARDHTMVRGAFDYWGQGTLVTVSS VL: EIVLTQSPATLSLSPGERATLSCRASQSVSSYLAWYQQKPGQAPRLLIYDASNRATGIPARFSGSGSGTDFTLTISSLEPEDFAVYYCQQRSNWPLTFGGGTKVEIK" label="condition met"
